target: HLA-DR DRB1*0701 (DR7) (Homo sapiens, UniProt P01903+P01911, A100R/A102G/A103Q/D57E/D86V/E43K/F76Y/K127E/L162R/M171V/P40G/Q125H/Q99D/R33Q/R42Y/R54Q/S133A/S66F/T210M/V115G/Y107V/Y59L/Y89S); experiment: biochemical; format: binding; conditions: DRB1 *0701
No end group written: not given here.
Readout type: pIC50
Give bare numbers, as −log10 of the molar value.

>>> val("FLRSVFANSLVYGAS")
7.80

# map each sequence to its pIC50
1. QHLCGSHLVEALYLV
2. HYCYSLYGTTLEQQY
3. GRAVCGGVLVHPQWV
4. ALWRVSAEEY
5. RTGQIFKQTYSKFDT

1: 7.07; 2: 5.01; 3: 5.45; 4: 5.10; 5: 7.34
